Numbers sourced from paper PMC4629212.

Target: AChE (Electrophorus electricus, UniProt O42275)
Sequence (O42275 24-633): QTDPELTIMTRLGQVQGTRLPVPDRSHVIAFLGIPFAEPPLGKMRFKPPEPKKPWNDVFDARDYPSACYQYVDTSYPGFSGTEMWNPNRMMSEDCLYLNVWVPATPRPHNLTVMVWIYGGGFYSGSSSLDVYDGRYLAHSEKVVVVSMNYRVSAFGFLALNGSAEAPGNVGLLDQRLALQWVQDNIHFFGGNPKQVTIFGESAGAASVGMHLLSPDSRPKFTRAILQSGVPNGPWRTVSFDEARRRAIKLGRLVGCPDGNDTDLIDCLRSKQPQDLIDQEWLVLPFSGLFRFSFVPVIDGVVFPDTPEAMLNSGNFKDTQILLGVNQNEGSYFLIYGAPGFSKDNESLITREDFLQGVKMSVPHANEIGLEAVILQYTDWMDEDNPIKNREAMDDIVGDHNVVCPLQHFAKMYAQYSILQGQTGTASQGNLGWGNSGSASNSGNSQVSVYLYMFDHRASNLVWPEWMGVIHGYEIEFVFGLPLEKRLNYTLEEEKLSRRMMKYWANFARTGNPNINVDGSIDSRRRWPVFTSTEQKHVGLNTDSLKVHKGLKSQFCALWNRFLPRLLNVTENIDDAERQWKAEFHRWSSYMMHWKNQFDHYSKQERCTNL
Experiment: biochemical
Design: species or system Electric Eel
Details: 0.25 h, read-out: Inhibition ratios for AChE
Give Condition met when the value for inhibition at 50 µM is at least 20%. Give Condition not met when it is less.

Prompt: Please tell me: is the compound CCCCNC(=O)COc1cc(O)c2c(=O)c(-c3ccc(O)cc3)coc2c1 at or over 20% in terms of inhibition at 50 µM?
Completion: Condition not met

Prompt: Please tell me: is the compound Cl.O=C(COc1cc(O)c2c(=O)c(-c3ccc(O)cc3)coc2c1)NCCCCN1CCNCC1 at or over 20% in terms of inhibition at 50 µM?
Completion: Condition not met

Prompt: Please tell me: is the compound Cl.NCCCCNCCCCNC(=O)COc1cc(O)c2c(=O)c(-c3ccc(O)cc3)coc2c1 at or over 20% in terms of inhibition at 50 µM?
Completion: Condition met

Prompt: Please tell me: is the compound CN(C)CCNC(=O)COc1cc(O)c2c(=O)c(-c3ccc(O)cc3)coc2c1.Cl at or over 20% in terms of inhibition at 50 µM?
Completion: Condition met

Prompt: Please tell me: is the compound Cl.NCCCNCCCCNC(=O)COc1cc(O)c2c(=O)c(-c3ccc(O)cc3)coc2c1 at or over 20% in terms of inhibition at 50 µM?
Completion: Condition not met

Prompt: Please tell me: is the compound Cl.NCCCNC(=O)COc1cc(O)c2c(=O)c(-c3ccc(O)cc3)coc2c1 at or over 20% in terms of inhibition at 50 µM?
Completion: Condition met

Prompt: Please tell me: is the compound Cl.NCCCCNC(=O)COc1cc(O)c2c(=O)c(-c3ccc(O)cc3)coc2c1 at or over 20% in terms of inhibition at 50 µM?
Completion: Condition met

Prompt: Please tell me: is the compound Cl.NCCCNCCCNC(=O)COc1cc(O)c2c(=O)c(-c3ccc(O)cc3)coc2c1 at or over 20% in terms of inhibition at 50 µM?
Completion: Condition not met
